Below: a set of entries, each annotated with reported IC50.
tested-on: GST fusion human ERK2 protein (Homo sapiens, UniProt P28482)
Construct: purchased Carna Biosciences, Inc; host or cells: E. coli expression system
Sequence (P28482 whole entry, the tested form may be a part): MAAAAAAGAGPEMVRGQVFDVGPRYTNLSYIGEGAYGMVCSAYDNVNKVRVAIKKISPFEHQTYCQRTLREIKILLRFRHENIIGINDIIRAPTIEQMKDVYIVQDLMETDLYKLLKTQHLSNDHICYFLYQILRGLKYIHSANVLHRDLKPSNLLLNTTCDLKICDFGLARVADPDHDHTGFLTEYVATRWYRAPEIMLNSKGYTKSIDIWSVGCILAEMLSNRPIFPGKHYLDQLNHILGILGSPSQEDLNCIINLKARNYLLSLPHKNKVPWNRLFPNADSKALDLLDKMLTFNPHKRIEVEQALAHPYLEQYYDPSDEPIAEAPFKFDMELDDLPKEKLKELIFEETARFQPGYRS
experiment: ERK2 enzyme assay (2)
Format: biochemical
recorded-conditions: 1.25 nmol/L ERK2, ATP 1 mmol/L; read-out: ERK2 enzyme inhibitory activity (2)

CC(C)c1nnc(Nc2ccc3ncc(-c4cn(C)nc4-c4cccnc4)cc3n2)s1; < 1000 nM

For the next question, use this compound.
I would be grateful if you could share the reported IC50 for Cn1cc(-c2cnc3ccc(Nc4nnc(C5CCCC5)s4)nc3c2)cn1 .
< 1000 nM

###

tested-on: human PI3Kα protein (Homo sapiens, UniProt P42336)
Construct: purchased Carna Biosciences, Inc; host or cells: baculovirus expression system
Sequence (P42336 whole entry): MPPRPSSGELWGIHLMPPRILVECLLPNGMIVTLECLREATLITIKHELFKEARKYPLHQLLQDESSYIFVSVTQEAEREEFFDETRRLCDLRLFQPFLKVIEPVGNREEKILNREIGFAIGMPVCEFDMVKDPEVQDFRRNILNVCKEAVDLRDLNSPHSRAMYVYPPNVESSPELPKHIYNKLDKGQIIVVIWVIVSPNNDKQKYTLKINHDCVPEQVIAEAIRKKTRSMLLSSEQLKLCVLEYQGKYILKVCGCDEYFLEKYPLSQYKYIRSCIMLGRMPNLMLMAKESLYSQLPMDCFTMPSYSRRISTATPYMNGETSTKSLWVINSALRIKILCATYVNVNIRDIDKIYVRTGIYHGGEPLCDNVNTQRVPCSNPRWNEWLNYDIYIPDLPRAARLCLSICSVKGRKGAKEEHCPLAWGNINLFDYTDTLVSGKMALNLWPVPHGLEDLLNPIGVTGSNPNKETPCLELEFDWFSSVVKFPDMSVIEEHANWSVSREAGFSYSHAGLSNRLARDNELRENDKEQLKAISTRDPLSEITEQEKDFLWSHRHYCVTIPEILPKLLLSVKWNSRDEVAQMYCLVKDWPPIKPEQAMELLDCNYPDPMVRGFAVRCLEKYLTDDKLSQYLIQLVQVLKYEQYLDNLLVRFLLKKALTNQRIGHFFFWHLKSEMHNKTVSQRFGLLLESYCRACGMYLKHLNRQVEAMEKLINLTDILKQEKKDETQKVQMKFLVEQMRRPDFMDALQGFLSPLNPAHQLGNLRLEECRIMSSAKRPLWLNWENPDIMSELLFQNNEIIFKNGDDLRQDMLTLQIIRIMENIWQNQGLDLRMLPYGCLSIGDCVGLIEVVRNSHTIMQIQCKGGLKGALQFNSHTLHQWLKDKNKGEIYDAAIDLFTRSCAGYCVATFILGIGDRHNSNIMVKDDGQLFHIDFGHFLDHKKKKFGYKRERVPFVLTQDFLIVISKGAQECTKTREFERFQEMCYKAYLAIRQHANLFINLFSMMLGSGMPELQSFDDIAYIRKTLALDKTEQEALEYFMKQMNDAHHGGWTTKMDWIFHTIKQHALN
Sequence (P27986 whole entry partner): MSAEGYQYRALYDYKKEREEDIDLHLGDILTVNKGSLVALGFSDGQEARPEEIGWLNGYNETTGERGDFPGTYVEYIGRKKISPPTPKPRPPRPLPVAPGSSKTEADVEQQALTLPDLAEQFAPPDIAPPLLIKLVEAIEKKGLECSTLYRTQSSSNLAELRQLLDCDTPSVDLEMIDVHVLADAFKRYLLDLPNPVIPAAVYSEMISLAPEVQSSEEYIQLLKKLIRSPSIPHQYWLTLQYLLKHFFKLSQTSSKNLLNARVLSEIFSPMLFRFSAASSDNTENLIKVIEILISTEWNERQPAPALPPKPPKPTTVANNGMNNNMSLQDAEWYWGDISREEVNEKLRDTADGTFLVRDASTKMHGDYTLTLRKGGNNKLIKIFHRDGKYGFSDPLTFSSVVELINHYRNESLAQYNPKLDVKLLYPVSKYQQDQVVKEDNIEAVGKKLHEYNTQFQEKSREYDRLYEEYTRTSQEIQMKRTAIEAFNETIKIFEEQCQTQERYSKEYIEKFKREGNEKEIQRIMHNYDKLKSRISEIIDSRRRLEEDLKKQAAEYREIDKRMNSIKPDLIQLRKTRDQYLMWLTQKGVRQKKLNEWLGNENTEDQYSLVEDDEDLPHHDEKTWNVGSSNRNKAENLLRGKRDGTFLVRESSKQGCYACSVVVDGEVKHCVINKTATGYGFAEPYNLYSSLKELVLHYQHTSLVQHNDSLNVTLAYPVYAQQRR
experiment: PI3Kα enzyme assay (ADP-Glo)
Type: biochemical
recorded-conditions: read-out: PI3Kα enzyme inhibitory activity
Method: In a PI3Kα enzyme assay, a product (manufactured by Carna Biosciences, Inc.) obtained by biotinylating a human PI3Kα protein produced by using a baculovirus expression system was used. […] The inhibitory activities of the compounds were evaluated using IC50 (50% inhibitory concentration). The IC50 was calculated using XLFIT (trade name, manufactured by ID Business Solutions).
Where a name gives a salt, the structure may show the parent alone.
Below: a set of entries, each annotated with reported IC50.

c1nc2ccc(Nc3cc(C4CC4)cnn3)nc2cc1-c1cnn(CCCN2CCOCC2)c1; < 1000 nM

I would be grateful if you could share the reported IC50 for Cc1ccnc(Nc2ccc3ncc(-c4cnn(C)c4)cc3n2)c1 .
< 1000 nM

I would be grateful if you could share the reported IC50 for Cn1cc(-c2cnc3ccc(Nc4cc(N5CCCC5)cnn4)nc3c2)cn1 .
1000 to 10000 nM

I would be grateful if you could share the reported IC50 for c1nc2ccc(Nc3nnc(C4CCCC4)s3)nc2cc1NC1CCOCC1 .
< 1000 nM

I would be grateful if you could share the reported IC50 for CC(C)c1cnnc(Nc2ccc3ncc(-c4cn(C)nc4Nc4cccnc4)cc3n2)c1 .
< 1000 nM

I would be grateful if you could share the reported IC50 for c1nc2ccc(Nc3nnc(C4CCCC4)s3)nc2cc1C1CCNCC1 [Example 0332, hydrochloride] .
10000 to 50000 nM

I would be grateful if you could share the reported IC50 for CN1CCC(c2nnc(Nc3ccc4ncc(-c5cnn(C)c5)cc4n3)s2)C1 (centres unmarked) .
1000 to 10000 nM

I would be grateful if you could share the reported IC50 for CC(C)c1cnnc(Nc2ccc3ncc(-c4cnn(CCC(C)(C)O)c4)cc3n2)c1 .
< 1000 nM

I would be grateful if you could share the reported IC50 for CC(C)c1cnnc(Nc2ccc3ncc(-c4cnn(CC5CN(S(C)(=O)=O)C5)c4)cc3n2)c1 .
< 1000 nM

I would be grateful if you could share the reported IC50 for OCCc1nnc(Nc2ccc3ncc(-c4cnn(CCCN5CCCC5)c4)cc3n2)s1 .
< 1000 nM

I would be grateful if you could share the reported IC50 for CN1CC=C(c2cnc3ccc(Nc4nnc(C5CCCC5)s4)nc3c2)CC1 .
1000 to 10000 nM

I would be grateful if you could share the reported IC50 for OCCCN1CCC(n2cc(-c3cnc4ccc(Nc5nnc(C6CCCC6)s5)nc4c3)cn2)CC1 .
< 1000 nM

I would be grateful if you could share the reported IC50 for COCC(COC)Cn1cc(-c2cnc3ccc(Nc4cc(C(C)C)cnn4)nc3c2)cn1 .
< 1000 nM

I would be grateful if you could share the reported IC50 for c1nc2ccc(Nc3nnc(C4CCCC4)s3)nc2cc1-c1cnn(CCCN2CCCCC2)c1 .
< 1000 nM

I would be grateful if you could share the reported IC50 for CCC(CC)c1cnnc(Nc2ccc3ncc(-c4cnn(C)c4)cc3n2)c1 .
< 1000 nM

I would be grateful if you could share the reported IC50 for c1ccc(Cc2nnc(Nc3ccc4ncc(-c5cnn(CCCN6CCCC6)c5)cc4n3)s2)nc1 .
< 1000 nM

src = patent US9783536B2
